assay protocol: soluble on expression in E. coli; label from the status in PepcDB or PDB records
value kind: soluble on expression in E. coli

>>> assay_result("MGQTVNEDSMDVKKENQEKTPQSSTSSVQRDDFHWEEYLKETGSISAPSECFRQSQIPPVNDFKVGMKLEARDPRNATSVCIATVIGITGARLRLRLDGSDNRNDFWRLVDSPDIQPVGTCEKEGDLLQPPLGYQMNTSSWPMFLLKTLNGSEMASATLFKKEPPKPPLNNFKVGMKLEAIDKKNPYLICPATIGDVKGDEVHITFDGWSGAFDYWCKYDSRDIFPAGWCRLTGDVLQPPGTS")
"soluble"
>>> assay_result("MTYTLAILGCGVMGQALLSAIYNAPKAADETAAAFYPSKIITCNHDEPSAQQVTDLVETFDESPNGIKVESTYGHNVSAVEEASVVLLGTKPFLAEEVLNGVKSVIGGKLLISLAAGWTIDQLSQYTSTVCRVMTNTPAKYGYGCAVVSYSADVSKEQKPLVNELISQVGKYVELPEKNMDAATALVGSGPAFVLLMLESLMESGLKLGIPLQESKECAMKVLEGTVKMVEKSGAHPSVLKHQVCTPGGTTIAGLCVMEEKGVKSGIINGVEEAARVASQLGQKKK")
"soluble"
>>> assay_result("MSQLMQLKDVAESTRLGPLSGEVSAGEILHLVGPNGAGKSTLLARMAGLTSGEGSIRFGGAPLEAWATATLAQHRAYLAQQQNPPFAMPVWHYLTLHQPDKTRTGQLNEVADMLGLGDKLGRSVNQLSGGEWQRVRLAAVVLQIHPDANPVGQLLLLDEPMNSLDVAQQNALDRVLHHLCQAGIAIVMSSHDLNHTLRHAHKAWLLKRGKLIACGRREEVLTPSYLAQAYGLRFRRLDVEGHPMLISAT")
"not soluble"
>>> assay_result("VTRPRPPLGPAMAGAVDLSGIKQRAQQNAAASTDADRALSTPSGVTEITEANFEDEVIVRSDEVPVVVLLWSPRSEVCVDLLDTLSGLAAAAKGKWSLASVNVDVAPRVAQIFGVQAVPTVVALAAGQPISSFQGLQPADQLSRWVDSLLSATAGKLKGAASSEESTEVDPAVAQARQQLEDGDFVAARKSYQAILDANPGSVEAKAAIRQIEFLIRATAQRPDAVSVADSLSDDIDAAFAAADVQVLNQDVSAAFERLIALVRRTSGEERTRVRTRLIELFELFDPADPEVVAGRRNLANALY")
"not soluble"
>>> assay_result("MELASNFDEFISTQSIEEGLDFGCNLLSSALRLQGDTDPAQAQVLLQELTQYLSLRYVGEHGLALEYLAGLGHQCSPDNYRHSQFWGQLKWIANEIGLSDTALNSLALPPGVLRSGGA")
"not soluble"
>>> assay_result("MKLVPDAFHPGYWGPLLSAHMPRTAYLPVSESFISALQRDSLNEADAERLQSDFSELIQGLSHAMDYLRTDHSTSEGFCPKLNGKLPYDAAWILGRHAPCCYTWNEAMMVLRASSRIHEPTRTSWQGSFCLVVQRWEQIHPANEFRCFISSCRVIAICQRHPDTPYPFLARERDRLVNAMVSFYETHVRPLHPAYAECILDCYLDDSQSVRTLGIDAWSDDALLLFEVSEMEALRAQAAAAFPGQHSDPDGHRQSEAPGEDATGATVSFRSVAQGFAAVPWGWSEKLPLELGDDFLRARIQRNASD")
"not soluble"
>>> assay_result("MSGVSTAAYFARRAAQKERVRILYRRALKDTLNWAVHRHIFYRDEDVDRIDKLIAHGEAEYNKWRHPDPYIVPWAPGGSKFCRNPTPPAGIEIVYNYGLEDNP")
"not soluble"

###

assay protocol: soluble on expression in E. coli; label from the status in PepcDB or PDB records
value kind: soluble on expression in E. coli

>>> assay_result("MGSDKIHHHHHHMNGTATGPRSSHFHWLLCALIVALPGCRDKPLREVIDRPVLFTEIADPQNASYGRFAGSIQPQHEVALGFRIAGRLATRHAEMGDRVRKGDLLATLDPSDQQNRLRARQAELSRARSAWQQLSDEQTRYQQLYTRGVGSRARLDQLNSDLRSQNALLDQASAAVQQAGDHLAYTRLTAEFDGLVTQWQTEVGQVMATGQAVVSLARPESREAVVDLPVGLLASLDDSRQIRVISQLDKQVSVIASVRQLAPQIDAGTRTQRVRLALQHIPDSLRLGSTVTVEISGNAPAFHELPASAVLARDGKDQVWVIDPSTSTLSPRAVQVLARKGGKVQVSGELHEGEKVVTAGVNGMQSGQKIRMQREVSL")
"not soluble"
>>> assay_result("MLILGLVISCGGSKDITLPNKNVKIEGDVLTFKGKPFTGNIKMNLADKMDGYAGAMSFKDGHLDGLTDLKNDKENQQVKFTVVDGKFDGELIMKDAKQRTDIVLDIKNGAIVKYLADVQGAYKYDLSFVDNLANGTMEAQGQKFEFKDGIAKGPQGQELKLTLDPESGDLTMEAMVNGKVAGKQTIPNVLTPQYLETFIFRAVTMTNR")
"not soluble"

###

assay protocol: soluble on expression in E. coli; label from the status in PepcDB or PDB records
value kind: soluble on expression in E. coli

>>> assay_result("MGSDKIHHHHHHMKVRIRDFIETTEGLYFAVNTYAHPKNKFFAFLRYVPYEFVDFKIEDNNIREINGRKYIKMAESKIAYKFLEEKFSKYLYYDETINVLMHAIPKEDVKRILRPKERLNEIINEENNLNELEEKCRKLALILEDYGVPIKSMGVSGSLLLKLNNKNSDIDFVIYGKDMHKKAREALKQAFEDNKLKPLSDDFWKIAYKKRIKDKTLTYEEFVFYEKRKYNRGIVDNTMFDLLFTREWDEITEKYGDKRYKNLGFAKIEGRVLNDDFAFDNPAVYKIECYNDEDIKEVVSFTHTYAGQCFNGEEIVARGKLEEVIDKSGERYKRIVVGTTREAFNEYIKIKR")
"not soluble"
>>> assay_result("MSLYVPGKQVTLAHIIASPNKEIYTKLGLPEGTSNALGILTITPSEAAIIAVDIATKSGDIQIGFIDRFSGSVVISGDVSSVEAALQAVIEGLQQILNFSVTCKEGHHHHHH")
"not soluble"

###

assay protocol: soluble on expression in E. coli; label from the status in PepcDB or PDB records
value kind: soluble on expression in E. coli

>>> assay_result("MEKLAAKVLENFDFLKKLLRDRAECGESEITIYDDPVTIVVKRDRIDFFINEEYHGSVGVGFNTLSDEIREEARLWLEGLAGMKFKRYAVRR")
"not soluble"
>>> assay_result("GPGSMIQIIAPRGPLQEMLLLELQGKVVIPPKLLEEERERQRIPNSSEEEVKACSQVTGGKRLREDGECGVNVDTNQVVEVPLGCVVWDSRNETRCSLQIGTVEVSGSYGKRREPLLVLKRCVVGDKTADAEGAVACEYSESSGSQCCLLQEWLQEHPEELTLDATVRGATVPRKVYELVGVVERYIHLNSKPLRRFV")
"not soluble"
>>> assay_result("SGRTWREADINYTSGFRNSDRILYSSDWLIYKTTDHYQTFTKIRCAQVINTFDGVADYLQTYHKLPDNYITKSEAQALGWVASKGNLADVAPGKSIGGDIFSNREGKLPGK")
"soluble"
>>> assay_result("NAADGIFFPALEQNMMGAVLINENDEVMFFNPAAEKLWGYKREEVIGNNIDMLIPRDLRPAHPEYIRHNREGGKARVEGMSRELQLEKKDGSKIWTRFALSKVSAEGKVYYLALVRDAS")
"soluble"
>>> assay_result("MGTGGITSNAHVVSPTWHHKHVPPMDDDSVLQRDIGELLSRWGGLQMAVKNQWGGHDSLKKSQELAHNLFHLISQSNGSIFFLLL")
"not soluble"

###

assay protocol: soluble on expression in E. coli; label from the status in PepcDB or PDB records
value kind: soluble on expression in E. coli

>>> assay_result("ELKDLQKDEKFWTESSQFKVSVPVGWDINHKEVCFEIGNEQNHTLICGRSGSGKSNFLHVLIQNLAFYYAPNEVQLFLLDYKEGVEFNAYTDPNILEHARLVSVASSVGYGMSFLNWLCKEMQERANLFKQFNVKDLSDYRKHGEIPRLIVVIDEFQVLFSDNKSTKAVEGHLNTLLKKGRSYGVHLILATQTMRGTDINRSIMAQIANRIALSMDAEDSNSILGDDAACELVRPEGIFNNNGGHQKHHTKMSIPKAP")
"not soluble"
>>> assay_result("MWSVTDSPLDDAIQEAKSAAQKAGFDTETFAAVQSKEGRTSFAFELEGLGSASSVSELEEAIEQIEGVDAKIVYPSAMAWISASRTLDPTLIVDAFQQHGVTATLTDSSLRRRLAWTDVEEGRYRRARARRFGSRVDEESRRFEIARREGFLHKRDETTRVVETTEVLFTARSLMTKAR")
"not soluble"
>>> assay_result("MKIMIFICGEGLGHTSRCLALGKELLNAGHEIKFGAYGYSKELVEKTGYTAQEIPSEIKLVGKAGSLDLTGSIEATLKSAQLLGGPKLLKLLREFKPDVVVSDSYYLGTLAAMVLKLPVYLIINQSNMEEFFKNRGVPVRIIGKLTKKFYKEVFEKTDKILEHHHHHH")
"not soluble"
>>> assay_result("AVGTPITISVPSLPYANSASEIVLSQLRDIGFDVRLESTEFPSVWLSKVYKAKDYDMSVVAHVEARDIPNLFGNPDYYLGFDDEQVRELLAQADSGDADSYVSTMKKVVNRIMDQAGADTLFNLPNIVVTQPDVSGVPTNLVADGLVVSNISRSED")
"not soluble"
>>> assay_result("MNVYHYETSGGKDLILEYIDGLPKNEKAEGLTILEKLEKEGLEALEVLNTRQLRGKLWEIKFYRSNRIMYVVADEDNIYLVHACKKQKGKAEKFELDTAIKRVKELEKELGKKFI")
"not soluble"
>>> assay_result("MMVVNIKMQQMKSQFIQYNDSNNKVLYQKCKPVADIQNAEIQNIITEMHEKMQGNGIGLAANQIGYPYQIFMIEFDSSNARYPFSFDSVPYQVFINPKITKASKQRVSFWHGCLSALGEKRGKLATYKEIEYEAYNQHGEKITGKLDSIAAIIFQHEFNHLLGSVYVDFDTEYIDNEELQAKFASGELKPYQECGEEVPLLLEKYQIGKNI")
"not soluble"
>>> assay_result("MGRGIAQIIRHDEPTDEIVDKFYRQINNPVLANINLQWEGDGDSPIIYPCNPPDLFAEQPLVLFGKKPDARGGKLHITGIVAGGTHYQHTFDLNFEETGNPAIAQLWGRYRIKELMNLMVSGETKLGVEAVTDTALTYQMLSQYTAFVAVSDDVRVDSLQETVSVQVPVEMAEGISYLGIFGSAVSAAAPIMANMVLEHHHHHH")
"not soluble"
